Please provide measured IC50 for the entries that follow.
Biological target: Fatty-acid amide hydrolase 1 (Rattus norvegicus, UniProt P97612)
Sequence (P97612 whole entry): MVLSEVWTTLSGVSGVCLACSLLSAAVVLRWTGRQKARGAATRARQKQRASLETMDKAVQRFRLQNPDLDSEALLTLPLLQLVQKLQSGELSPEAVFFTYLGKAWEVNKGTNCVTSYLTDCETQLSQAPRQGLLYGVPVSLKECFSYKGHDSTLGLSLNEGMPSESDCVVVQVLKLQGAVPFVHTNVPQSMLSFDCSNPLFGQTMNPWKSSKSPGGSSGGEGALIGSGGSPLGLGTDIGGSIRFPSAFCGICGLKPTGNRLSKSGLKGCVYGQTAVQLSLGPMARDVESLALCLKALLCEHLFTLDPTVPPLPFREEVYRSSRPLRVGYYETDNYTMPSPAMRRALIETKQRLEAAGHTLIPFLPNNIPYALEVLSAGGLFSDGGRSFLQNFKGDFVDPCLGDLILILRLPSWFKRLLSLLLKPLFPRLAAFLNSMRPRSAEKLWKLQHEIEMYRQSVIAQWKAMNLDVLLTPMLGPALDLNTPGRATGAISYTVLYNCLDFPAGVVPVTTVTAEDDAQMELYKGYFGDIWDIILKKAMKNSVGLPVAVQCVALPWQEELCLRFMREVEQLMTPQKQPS

What value of IC50 has been reported for the following compound? CCCCCCCCc1ccc(OCC(=O)Cn2cnc3ccccc32)cc1 1 µM

What value of IC50 has been reported for the following compound? CCCCCCCCc1ccc(OCC(=O)Cn2ccc(C(=O)O)n2)cc1 > 10 µM

What value of IC50 has been reported for the following compound? CCCCCCCCc1ccc(OCC(=O)Cn2cnc3ccc(C(=O)O)cc32)cc1 3.1 µM

What value of IC50 has been reported for the following compound? CCCCCCCCc1ccc(OCC(=O)Cn2ncc3cc(C(=O)O)ccc32)cc1 0.16 µM

What value of IC50 has been reported for the following compound? CCCCCCCCc1ccc(OCC(=O)Cn2cnc3cc(C(=O)O)ccc32)cc1 0.61 µM

What value of IC50 has been reported for the following compound? CCCCCCCCc1ccc(OCC(=O)Cn2cnc(C(=O)O)c2)cc1 1.9 µM

What value of IC50 has been reported for the following compound? CCCCCCCCc1ccc(OCC(=O)Cn2ccc3cc(C(=O)O)ccc32)cc1 2.8 µM

What value of IC50 has been reported for the following compound? CCCCCCCCc1ccc(OCC(=O)Cn2ccc(C(=O)O)c2)cc1 3.6 µM

What value of IC50 has been reported for the following compound? CCCCCCCCCCOc1ccc(OCC(=O)COc2ccc(C(=O)O)cc2)cc1 0.059 µM

What value of IC50 has been reported for the following compound? CCCCCCCCc1ccc(OCC(=O)Cn2ccc3c(C(=O)O)cccc32)cc1 > 10 µM

What value of IC50 has been reported for the following compound? CCCCCCCCc1ccc(OCC(=O)Cn2ccc3cc(C#N)ccc32)cc1 > 10 µM

* * *

Molecular target: Cytosolic phospholipase A2 (Homo sapiens, UniProt P47712)
Sequence (P47712 whole entry): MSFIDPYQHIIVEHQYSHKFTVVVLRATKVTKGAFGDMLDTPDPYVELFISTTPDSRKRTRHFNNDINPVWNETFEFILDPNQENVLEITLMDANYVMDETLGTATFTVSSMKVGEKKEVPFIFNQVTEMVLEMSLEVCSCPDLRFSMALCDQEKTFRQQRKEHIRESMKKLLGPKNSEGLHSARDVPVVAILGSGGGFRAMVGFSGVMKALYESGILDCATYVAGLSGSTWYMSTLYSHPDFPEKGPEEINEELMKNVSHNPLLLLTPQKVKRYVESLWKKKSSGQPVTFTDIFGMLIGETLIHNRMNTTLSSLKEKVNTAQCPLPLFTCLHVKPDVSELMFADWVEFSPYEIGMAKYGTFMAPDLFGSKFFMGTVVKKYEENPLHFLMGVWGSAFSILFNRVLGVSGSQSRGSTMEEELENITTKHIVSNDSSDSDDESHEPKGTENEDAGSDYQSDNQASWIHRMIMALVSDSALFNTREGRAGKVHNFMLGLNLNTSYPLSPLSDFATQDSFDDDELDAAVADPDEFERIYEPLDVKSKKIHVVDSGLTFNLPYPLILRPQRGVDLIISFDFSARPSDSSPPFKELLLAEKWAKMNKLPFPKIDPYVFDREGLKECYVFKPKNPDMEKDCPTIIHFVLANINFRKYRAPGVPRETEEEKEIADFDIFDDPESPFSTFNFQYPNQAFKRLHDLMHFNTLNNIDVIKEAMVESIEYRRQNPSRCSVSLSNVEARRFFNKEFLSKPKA
Please provide measured pIC50 for the entries that follow.
Keep it numeric: pIC50 is minus log10 of the concentration in mol/L.

What value of pIC50 has been reported for the following molecule? CCCCCCCCc1ccc(OCC(=O)Cn2cnc(C(=O)O)c2)cc1 5.28

What value of pIC50 has been reported for the following molecule? CC(C)CN(Cc1ccccc1-c1ccccc1)[C@@H]1C[C@@H](CNC(=O)/C=C/c2ccc(/C=C3\SC(=O)NC3=O)cc2)N(C(=O)c2ccccc2C(=O)c2ccc(F)cc2F)C1 7.51

What value of pIC50 has been reported for the following molecule? CCCCCCCCc1ccc(OCC(=O)Cn2ccc(C(=O)O)c2)cc1 5.30

What value of pIC50 has been reported for the following molecule? CCCCCCCCc1ccc(OCC(=O)Cn2ccnc2)cc1 6.30

What value of pIC50 has been reported for the following molecule? CCCCCCCCc1ccc(OCC(=O)Cn2ccc(C(=O)O)n2)cc1 5.09

What value of pIC50 has been reported for the following molecule? CCCCCCCCc1ccc(OCC(=O)Cn2nnc3ccccc32)cc1 5.66

What value of pIC50 has been reported for the following molecule? CCCCCCCCc1ccc(OCC(=O)Cn2cc(C(C)=O)c3cc(C(=O)O)ccc32)cc1 7.92

What value of pIC50 has been reported for the following molecule? CCCCCCCCc1ccc(OCC(=O)Cn2cc(C(=O)O)cn2)cc1 5.74

* * *

Biological target: Fatty-acid amide hydrolase 1 (Rattus norvegicus, UniProt P97612)
pIC50: −log10 of the molar value.
T means recorded pIC50 is 7 or above; F means it is below 7.

Kindly determine if pIC50 recorded for CCCCCCCCc1ccc(OCC(=O)Cn2ccc3cc(OC)ccc32)cc1 is above or exactly 7. F

Kindly determine if pIC50 recorded for CCCCCCCCc1ccc(OCC(=O)Cn2nnc3ccccc32)cc1 is above or exactly 7. T

Kindly determine if pIC50 recorded for CCCCCCCCc1ccc(OCC(=O)Cn2ccnc2)cc1 is above or exactly 7. F

Kindly determine if pIC50 recorded for CCCCCCCCc1ccc(OCC(=O)Cn2ncc3ccc(C(=O)O)cc32)cc1 is above or exactly 7. F

Kindly determine if pIC50 recorded for CCCCCCCCc1ccc(OCC(=O)Cn2cccn2)cc1 is above or exactly 7. F

Kindly determine if pIC50 recorded for CCCCCCCCc1ccc(OCC(=O)Cn2nnc3ccc(C(=O)O)cc32)cc1 is above or exactly 7. F

* * *

Biological target: UniProtKB P97612
Experiment: Inhibition of FAAH from rat brain microsomes at 10 uM by RP-HPLC
Activity calls are given as the source filed them. The rule behind the calls is not given here.
measurement.type: inhibition

Consider the following illustrative entries.
| record.smiles | inhibition |
| --- | --- |
| CCCCCCCCc1ccc(OCC(=O)Cn2cc(Cl)c3cc(C(=O)O)ccc32)cc1 | inactive |
| CCCCCCCCc1ccc(OCC(=O)Cn2cc(C(C)(C)C)c3cc(C(=O)O)ccc32)cc1 | inactive |
| CCCCCCCCc1ccc(OCC(=O)Cn2cccc2)cc1 | inactive |
| CCCCCCCCc1ccc(OCC(=O)Cn2ccc3cc(OC)ccc32)cc1 | 22% |
| CCCCCCCCc1ccc(OCC(=O)Cn2ccc(C(=O)O)n2)cc1 | 39% |
| CCCCCCCCc1ccc(OCC(=O)Cn2cc(C(=O)O)c3ccccc32)cc1 | inactive |

What value of inhibition has been reported for the following compound? CCCCCCCCc1ccc(OCC(=O)Cn2cc(C(C)=O)c3cc(C(=O)O)ccc32)cc1 inactive

What value of inhibition has been reported for the following compound? CCCCCCCCc1ccc(OCC(=O)Cn2cc(C=O)c3cc(C(=O)O)ccc32)cc1 inactive

What value of inhibition has been reported for the following compound? CCCCCCCCc1ccc(OCC(=O)Cn2ccc3cc(C(=O)OC)ccc32)cc1 inactive

What value of inhibition has been reported for the following compound? CCCCCCCCc1ccc(OCC(=O)Cn2cccc2C(=O)O)cc1 inactive

* * *

Target: Fatty-acid amide hydrolase 1 (Rattus norvegicus)
Experiment: Inhibition of FAAH from rat brain microsomes at 10 uM by RP-HPLC
Calls of active or inactive are those of the source. No cut-off for these calls is given here.
measurement.type: inhibition

Consider the following illustrative entries.
| record.smiles | target.desc | inhibition |
| --- | --- | --- |
| CCCCCCCCc1ccc(OCC(=O)Cn2nccc2C(=O)O)cc1 | Fatty-acid amide hydrolase 1 (Rattus norvegicus) | inactive |
| CCCCCCCCc1ccc(OCC(=O)Cn2ccc3cc(C=O)ccc32)cc1 | Fatty-acid amide hydrolase 1 (Rattus norvegicus) | 45% |
| CCCCCCCCc1ccc(OCC(=O)Cn2ccc3cc(Cl)ccc32)cc1 | Fatty-acid amide hydrolase 1 (Rattus norvegicus) | inactive |
| CCCCCCCCc1ccc(OCC(=O)Cn2ccc3ccccc32)cc1 | Fatty-acid amide hydrolase 1 (Rattus norvegicus) | inactive |
| CCCCCCCCc1ccc(OCC(=O)Cn2ccc3cc(C#N)ccc32)cc1 | Fatty-acid amide hydrolase 1 (Rattus norvegicus) | 42% |

Now consider a different molecule.
What value of inhibition has been reported for the following molecule? CCCCCCCCc1ccc(OCC(=O)Cn2ccc3c(C(=O)O)cccc32)cc1 40%

All figures here come from ChEMBL document CHEMBL1157719.
